test system: K-562; details: 72 h
// values below are reported IC50 (cell viability)

O=C(O)c1nn(Cc2ccc(Cl)cc2Cl)c2ccccc12; > 10 µM
Cc1coc2c1C(=O)C(=O)c1c-2ccc2c(C)cccc12; > 10 µM
C[C@H]1O[C@@H](O[C@H]2[C@@H](O)C[C@H](O[C@H]3[C@@H](O)C[C@H](O[C@H]4CC[C@@]5(C)[C@H](CC[C@@H]6[C@@H]5C[C@@H](O)[C@]5(C)[C@@H](C7=CC(=O)OC7)CC[C@]65O)C4)O[C@@H]3C)O[C@@H]2C)C[C@H](O)[C@@H]1O; 0.0855 µM
CCOc1ccc(Cc2cc([C@@H]3O[C@H](CO)[C@@H](O)[C@H](O)[C@H]3O)ccc2Cl)cc1; > 10 µM
Oc1cc(Cl)ccc1Oc1ccc(Cl)cc1Cl; > 10 µM

I would be grateful if you could share the reported IC50 (cell viability) for COc1c(C)c2c(c(O)c1C/C=C(\C)CCC(=O)O)C(=O)OC2 .
0.561 µM

Cl.OC[C@H]1NC[C@@H](O)[C@@H](O)[C@@H]1O [1-Deoxymannojirimycin hydrochloride] , same question.
> 10 µM
